Provenance of the data: patent US20230145305A1

System: OCI-LY10 cells
Assay: Cell proliferation assay (MTS) in OCI-LY10 cells
Assay type: cell-based
Conditions: Homo sapiens; inhibition of OCI-LY10 cells proliferation, 72 h incubation, MTS, absorbance at 490 nm; read-out: OCI-LY10 IC50
pIC50: −log10 of the molar value.
measured metric: pIC50

>>> reported_value("COc1ccc(F)cc1C(=O)NCc1ccc(-n2c(=O)n(C3CCCC3)c3c(=O)[nH]nc(N)c32)cc1 [Example 60]")
7.52
>>> reported_value("COc1ccccc1C(=O)NCc1ccc(-n2cc(C3CCCC3)c3c(=O)[nH]nc(N)c32)cc1 [Example 1]")
7.55
>>> reported_value("COc1ccc(F)cc1C(=O)NCc1ccc(-c2cn(C3CCOCC3)c3c(=O)[nH]nc(N)c23)cc1 [Example 37]")
8.05
>>> reported_value("COc1ccc(F)cc1C(=O)NCc1ccc(-c2cn([C@@H]3CCN(C(=O)C4CC4)C3)c3c(=O)[nH]nc(N)c23)cc1 [Example 48]")
7.32
>>> reported_value("COc1ccc(F)cc1C(=O)NCc1ccc(-n2nc(C3CCCO3)c3c(=O)[nH]nc(N)c32)cc1 (centres unmarked) [Example 86]")
7.05
>>> reported_value("COc1ccc(F)cc1C(=O)NCc1ccc(-c2nn(C(CO)C(F)(F)F)c3c(=O)[nH]nc(N)c23)cc1 (centres unmarked) [Example 78]")
7.59
>>> reported_value("COc1ccc(F)cc1C(=O)NCc1ccc(-c2cn(C3CC(F)(F)C3)c3c(=O)[nH]nc(N)c23)cn1 [Example 55]")
7.55
>>> reported_value("COc1ccccc1C(=O)NCc1ccc(-c2cn(C3CCCC3)c3c(=O)[nH]nc(N)c23)cc1 [Example 4]")
7.16
>>> reported_value("COc1ccc(F)cc1C(=O)NCc1ccc(-c2nn(C3CCCC3)c3c(=O)[nH]nc(N)c23)c(F)c1 [Example 63]")
9.00
>>> reported_value("COc1ccc(F)cc1C(=O)NCc1ccc(-n2nc(C(C)C3CC3)c3c(=O)[nH]nc(N)c32)cc1 (centres unmarked) [Example 96]")
9.00
>>> reported_value("COc1ccc(F)cc1C(=O)NCc1ccc(-c2nn(C3CCCC3)c3c(=O)[nH]nc(N)c23)cc1 [Example 11]")
9.00
>>> reported_value("COc1ccc(F)cc1C(=O)NCc1ccc(-c2nn(C(C)C(C)C)c3c(=O)[nH]nc(N)c23)cc1 (centres unmarked) [Example 69]")
8.30
>>> reported_value("COc1ccc(F)cc1C(=O)NCc1ccc(-c2nn([C@@H](CF)C3CC3)c3c(=O)[nH]nc(N)c23)cc1 [Example 88]")
9.00
>>> reported_value("COc1ccc(F)cc1C(=O)NCc1ccc(-c2cn([C@@H]3CCN(S(=O)(=O)C(C)C)C3)c3c(=O)[nH]nc(N)c23)cc1 [Example 111]")
7.85
>>> reported_value("COc1ccc(F)cc1C(=O)NCc1ccc(-c2nn([C@H]3CCCC3(F)F)c3c(=O)[nH]nc(N)c23)cc1 [Example 64]")
9.00
>>> reported_value("COc1ccc(F)cc1C(=O)NCc1ccc(-n2nc(C3CCCC3)c3c(=O)[nH]nc(N)c32)cc1 [Example 16]")
9.00
>>> reported_value("COc1ccc(F)cc1C(=O)NCc1ccc(-c2cn(C(C)C(F)(F)F)c3c(=O)[nH]nc(N)c23)cc1F (centres unmarked) [Example 53]")
8.52
>>> reported_value("COc1ccc(F)cc1C(=O)NCc1ccc(-n2cc(C3CCCCC3)c3c(=O)[nH]nc(N)c32)cc1 [Example 27]")
9.00
>>> reported_value("COc1ccc(F)cc1C(=O)NCc1ccc(-c2cn(C3CC(F)(F)C3)c3c(=O)[nH]nc(N)c23)cc1F [Example 56]")
8.52
>>> reported_value("COc1ccc(F)cc1C(=O)NCc1ccc(-c2cn(C3CCCC3)c3c(=O)[nH]nc(N)c23)cc1 [Example 17]")
9.00
>>> reported_value("COc1ccc(F)cc1C(=O)NCc1ccc(-c2cn(C3CCCCC3)c3c(=O)[nH]nc(N)c23)cc1 [Example 35]")
9.00
>>> reported_value("COc1ccc(F)cc1C(=O)NCc1ccc(-c2cn(C3CCC3)c3c(=O)[nH]nc(N)c23)cc1 [Example 36]")
9.00
>>> reported_value("COc1ccc(F)cc1C(=O)NCc1ccc(-n2nc(C(C)(C)C)c3c(=O)[nH]nc(N)c32)cc1 [Example 94]")
9.00
>>> reported_value("COc1ccc(F)cc1C(=O)NCc1ccc(-c2nn(C3(C)CCC3)c3c(=O)[nH]nc(N)c23)cc1 [Example 73]")
9.00
>>> reported_value("COc1ccc(F)cc1C(=O)NCc1ccc(-c2nn(C(C)(C)C)c3c(=O)[nH]nc(N)c23)cc1 [Example 66]")
9.00
>>> reported_value("COc1ccccc1C(=O)NCc1ccc(-n2nc(C3CCCC3)c3c(=O)[nH]nc(N)c32)cc1 [Example 2]")
7.47
>>> reported_value("COc1ccc(F)cc1C(=O)NCc1ccc(-c2nn([C@@H](C)C3CC3)c3c(=O)[nH]nc(N)c23)cc1 [Example 77b]")
9.00
>>> reported_value("COc1ccc(F)cc1C(=O)NCc1ccc(-n2nc(C3CCCC3(F)F)c3c(=O)[nH]nc(N)c32)cc1 (centres unmarked) [Example 90]")
7.82
>>> reported_value("COc1ccc(F)cc1C(=O)NCc1ccc(-c2cn(C3CCCC3)c3c(=O)[nH]nc(N)c23)cn1 [Example 45]")
7.49
